system: MUSK; settings: concentration: 1 μM, replicates: in singlicate; n = 1;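 also: KINOMEscan kinase panel screen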
Quantity Measured: %Inh (%)
Give the number; % is assumed, so skip it.

Example entries begin here.
>>> observed_measurement("CC(C)(CN)c1nc(-c2ccc(Cl)c(O)c2)c(-c2ccncc2)[nH]1.O=C(O)C(F)(F)F")
0
>>> observed_measurement("O=C(NCCCN1CCOCC1)c1cccc(Nc2nccc(Nc3ccc(Oc4ccccc4)cc3)n2)c1")
2
>>> observed_measurement("Fc1ccc(-c2nn3c(OCC(F)(F)F)cccc3c2-c2ccncc2)cc1")
0

**Query** For the molecule COc1ccc(Nc2nccc(N3CCC(NC(=O)Nc4cccc(C(C)=O)c4)C3)n2)cc1 (stereo not shown) , give its reported %Inh.
**Result** 3
